# ASSAY_TARGET: PTP4A1 (Homo sapiens)
# Sequence (Q93096 whole entry): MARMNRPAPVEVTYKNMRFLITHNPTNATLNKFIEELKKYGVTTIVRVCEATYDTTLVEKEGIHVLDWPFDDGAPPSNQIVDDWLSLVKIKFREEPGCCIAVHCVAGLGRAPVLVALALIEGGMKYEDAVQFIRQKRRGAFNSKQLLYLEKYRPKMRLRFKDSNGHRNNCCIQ
PROPERTY: IC50 (µM)
Reply with just the number (in µM).

Sure, the documented IC50 for N=C1C(=O)NC(=O)c2cc(-c3ccccc3)sc21 is 0.05

---

# Test system: A2780CP20
# ASSAY_NOTES: 2D monolayer viability assay (CellTiter Blue)
# Format: cell-based
# RUN_CONDITIONS: Homo sapiens; 48 h, Mean ± SD, N=3
PROPERTY: IC50 (µM)
The response must be a number in µM with no trailing unit.

Record summary for Nc1c[nH]c(=O)c2cc(-c3ccccc3)sc12 [thienopyridone, reference compound] : reported IC50 = 13.1

From: paper PMC5823565
